Reported pIC50 is given for each of the following binders.
# target_of_assay: T1, mouse DLL4 overexpressed on cells (mouse, UniProt Q9JI71 27-686)
# T1 construct: whole, on cells; also called CHO-mDLL4; CHO-mDII4
# test: competitive FMAT, hNotch1-Fc on CHO-mDLL4
pIC50: −log10 of the molar value.
property_measured: pIC50

binder	property_measured	measured_number
DLLBII55D12 (VHH) VHH: EVQLVESGGGLVQPGGSLRLSCAASGFTFDDYAIGWFRQAPGKEPEGISCISSSGGITYYADSVKGRFTISRDNAKNTVYLQMNSLKPEDTAVYYCATPGIAACRGIHYTGQGTQVTVSS	pIC50	7.39
DLLBII56A09 (VHH, also called 56A9; DLLBII56A9) VHH: EVQLVESGGGLVQPGGSLRLSCAASGFTFDDYAIGWFRQAPGKEPEGISCISSSGGITYYADSVKGRFTTSRDNAKNTVYLQMNSLKPEDTAVYYCATPGIAACRGIHYTGQGTQVTVSS	pIC50	7.82
DLLBII115A05 (VHH, also called 115A5; DLLBII115A5) VHH: EVQLVESGGGLVQPGGSLRLSCAASGFTFGSYDMSWVRRSPGKGPEWVSSINSGGGSTYYADFVKGRFTISRDNAKNTLYLQMNSLKPEDTAVYYCAADRYIRARQGDYWGAYEYDYWGQGTQVTVSS	pIC50	7.37
DLLBII62C11 (VHH) VHH: EVQLMESGGGLVQPGGSLRLSCVAAGFTFSNYYMSWVRQAPGKGLEWVSVISPDGSNTYYADTVKGRFTISRGNAKNTLFLQMTGLKSEDAAVYYCARGSGSWGVHGQGTQVTVSS	pIC50	6.97
DLLBII96C03 (VHH, also called 96C3) VHH: EVQLVESGGGLVQPGGSLRLSCAASGFTFGNYDMSWVRQAPGKGPEWVSAINSGGGDTYYADSVKGRFTISRDNAKNTLYLQMNSLKPEDTAVYYCATPRGWGPTGPHEYGYWGQGTQVTVSS	pIC50	7.54
DLLBII56H08 (VHH) VHH: EVQLVESGGGLVQPGGSLRLSCAASGFTFDDYAIGWFRQAPGKEPEEISCISSSGGITYYADSVKGRFTISRDNAKNTVYLQMNSLKPEDTAVYYCATPGIAACRGIHYTGQGTQVTVSS	pIC50	7.47
DLLBII101G08 (VHH, also called 101G8; DLLBII101G8) VHH: EVQLVESGGGLVQAGGSLRLSCAASGRTFSSYAMAWFRQAPGKEREFVAAIRWSGGTAYYADSVQGRFTISRDNAKNTVYLQMNSLKPEDTAVYYCANRAADTRLGPYEYDYWGQGTQVTVSS	pIC50	7.04
DLLBII57C11 (VHH) VHH: EVQLVESGGGLVQPGGSLRLSCTASGFTFDDYAIGWFRQAPGKEPEGISCISSSGSITYDADSVKGRFTISRDNAKNTVYLQMNSLKPEDTAVYYCATPGIAACRGIHYWGQGTQVTVSS	pIC50	7.31
DLLBII56C04 (VHH) VHH: EVQLVESGGGLVQPGGSLRLSCTASGFTFDVYAIGWFRQAPGKEPEGISCISSSGSITYYADSVKGRFTTSRDSAKNTVYLQMNSLKPEDTAVYYCATPGIAACRGIHYWGQGTQVTVSS	pIC50	7.30

meta.source: patent US20140120095A1
